- System: SARS-CoV-2
- Measurement Notes: microbe, parasite or virus in culture
- Format: cell-based
- Experimental Parameters: Severe acute respiratory syndrome coronavirus 2, Calu-3, 72 h
# EC50 annotations
Return type: number; implicit unit nM.

Prompt: // fetch SARS-CoV-2 EC50 for N#C[C@@]1(c2ccc3c(N)ncnn23)O[C@H](CO)[C@@H](O)[C@H]1O
Response: 250

Prompt: Now consider CCC(CC)COC(=O)[C@H](C)N[P@](=O)(OC[C@H]1O[C@@](C#N)(c2ccc3c(N)ncnn23)[C@H](O)[C@@H]1O)Oc1ccccc1 .
Response: 110

---

- Measurement Notes: Cytotoxicity, MTS method, Vero CCL-81
- Format: cell-based
- Experimental Parameters: African monkey, Vero CCL-81 cells
Measurement Type: CC50

Prompt: # lookup: CC50 of N#C[C@@]1(c2ccc3c(N)ncnn23)O[C@H](CO)[C@@H](O)[C@H]1O [GS-441524]
Response: > 100 µM

---

- Measurement Notes: Cytotoxicity, MTS method, Caco-2
- Assay type: cell-based
- Experimental Parameters: human, Caco-2 cells
Measurement Type: CC50

CCC(CC)COC(=O)[C@H](C)N[P@](=O)(OC[C@H]1O[C@@](C#N)(c2ccc3c(N)ncnn23)[C@H](O)[C@@H]1O)Oc1ccccc1 :: > 100 µM

Continue with the next molecule.
Prompt: # lookup: CC50 of N#C[C@@]1(c2ccc3c(N)ncnn23)O[C@H](CO)[C@@H](O)[C@H]1O
Response: > 100 µM

---

- System: SARS-CoV-2
- Measurement Notes: microbe, parasite or virus in culture
- Type: cell-based
- Experimental Parameters: Severe acute respiratory syndrome coronavirus 2, Caco-2, 72 h
Measurement Type: EC50
In your response, put the unit directly after the numeric value.

CCC(CC)COC(=O)[C@H](C)N[P@](=O)(OC[C@H]1O[C@@](C#N)(c2ccc3c(N)ncnn23)[C@H](O)[C@@H]1O)Oc1ccccc1 :: 1 nM

Continue with the next molecule.
Prompt: # lookup: EC50 of N#C[C@@]1(c2ccc3c(N)ncnn23)O[C@H](CO)[C@@H](O)[C@H]1O
Response: 80 nM
